pKi: −log10 of the molar value.
Collected literature values of pKi measured for 5-hydroxytryptamine receptor 1A (Homo sapiens, UniProt P08908).

| compound | qualifier.symbol | pKi |
| --- | --- | --- |
| CN1CCC(c2noc3ccc(NC(=O)c4ccc(F)cc4)cc23)CC1 | = | 6.80 |
| O=C1CC(CN2CCC(c3noc4cc(F)ccc34)CC2)Cc2[nH]ncc21 (configuration not stated) | = | 5.82 |
| CN1CCC(C2CNc3ccc(NC(=O)c4ccc(F)cc4)cc32)CC1 (stereo in doubt; form 2) | = | 6.60 |
| CN(CCNc1cc(Cl)ccc1Cl)CCN1C(=O)CC2(CCCC2)CC1=O | = | 6.14 |
| CCNC(=O)c1cc2c(N3CCOC[C@@H]3C)ccnc2[nH]1 | = | 5.00 |
| O=[N+]([O-])c1ccc(-c2cccc(N3CCNCC3)c2)cc1 | = | 7.50 |
| c1ccc2c(c1)NCC(CNCCc1c[nH]c3ccccc13)O2 (configuration not stated) | = | 8.16 |
| COc1ccc(Sc2ccccc2N2CCNCC2)c(Cl)c1 | = | 7.03 |
| CN1CCN(c2nc3ccccc3c(Cl)c2Sc2ccccc2)CC1 | = | 5.70 |
| Cc1ccc(N2CCN(Cc3nc4ccccc4[nH]3)CC2)cc1C | = | 5.86 |
| CC(C)(C)c1ccc(SCCc2c[nH]cn2)cc1 | < | 6.00 |
| COc1cc(CN2CCOCC2)ccc1OCCCN1CCC(c2noc3cc(F)ccc23)CC1 | = | 6.95 |
| CSc1ccccc1N1CCN(CCCCCC(=O)N2Cc3ccccc3C2)CC1 | = | 8.97 |
| CSc1ccccc1OCCN1CCC(CNS(=O)(=O)c2cccc(Cl)c2)CC1 | = | 7.74 |
| COc1ccc(Cl)cc1N1CCN(CCNc2c(C(C)=O)c(-c3ccccc3)nn(C)c2=O)CC1 | = | 7.12 |
| CCCCC(Oc1cc(Cl)cc(Cl)c1)c1nc(Nc2ccncc2)nc(N2CCN(C)CC2)n1 (configuration not stated) | = | 5.29 |
| COc1ccc2c(=O)c3cccc(CN4CCN(c5ccccc5OC)CC4)c3oc2c1.Cl | = | 7.62 |

###

Collected literature values of pKi measured for 5-hydroxytryptamine receptor 1A (Homo sapiens).
pKi: −log10 of the molar value.

| molecule | qualifier.symbol | pKi |
| --- | --- | --- |
| CN1CCC(n2ccc3ccc(NC(=O)c4ccc(F)cc4)cc32)CC1 | = | 7.96 |
| Fc1cccc(F)c1Oc1cccc(F)c1OC1CNC1 | > | 8.52 |
| CC(Oc1cccc(Cl)c1)c1nc(N)nc(N2CCN(C)CC2)n1 (centres undefined) | = | 5.46 |
| Cn1c(=O)c2c(nc3n(CCCN4CCN(c5ccccc5)CC4)c(=O)ccn23)n(C)c1=O | = | 7.60 |

###

Collected literature values of log10 Ki measured for 5-hydroxytryptamine receptor 1A (Homo sapiens, UniProt P08908).
property.name: log10 Ki (log10 of the value in nM)

| compound | property.name | endpoint.result |
| --- | --- | --- |
| Cc1cccc(OCc2nc(N)nc(N3CCN(C)CC3)n2)c1 | log10 Ki | 4.18 |
| COc1ccccc1N1CCN(CCCCNc2ccc3cc(C)ccc3n2)CC1 | log10 Ki | -0.27 |
| O=S(=O)(NC1CCN(CCOc2ccccc2-c2ccccc2)CC1)c1cc(F)ccc1F | log10 Ki | 2.26 |
| COc1ccccc1N1CCN(CC(F)CCNC(=O)c2ccc3c(c2)Cc2ccccc2-3)CC1 (configuration not stated) | log10 Ki | 2.48 |
| Cc1cc2c(OC[C@@H](O)CN3CC[C@@H](c4cc5cc(Cl)ccc5s4)C[C@@H]3C)cccc2[nH]1 | log10 Ki | 1.20 |
| COc1cccc(OC)c1OCCNCCOc1ccccc1OCc1ccccc1C | log10 Ki | 1.05 |
| CCc1c(C(=O)N2CCc3cc4ccnc(N5CCN(C(C)C)CC5)c4cc32)cnn1-c1ccc(C#N)cc1 | log10 Ki | 0.80 |
| CSc1ccccc1N1CCN(CCCCCC(=O)NCc2ccccc2)CC1 | log10 Ki | 1.08 |
| COc1cccc(N2CCN(CCCCn3c(=O)oc4ccccc4c3=O)CC2)c1 | log10 Ki | 0.51 |
| CN1CCCC[C@@H]1CCN1c2ccccc2Sc2ccc([S@@](C)=O)cc21 | log10 Ki | 1.81 |
| COc1ccccc1N1CCN(Cc2ccc3oc4ccccc4c(=O)c3c2)CC1.Cl | log10 Ki | 2.07 |
| COc1ccccc1N1CCN(CCn2c(=O)[nH]c3[nH]c(-c4ccc(C)cc4)cc3c2=O)CC1 | log10 Ki | 2.52 |
| O=c1c2ccccc2ncn1CCCCN1CCN(c2cccc(Cl)c2)CC1 | log10 Ki | 0.72 |
| O=C(NCCCCN1CCN(c2ccccc2)CC1)c1cc2ccccc2o1 | log10 Ki | 1.48 |
| Cc1ccc2c(OCCN3CC(COc4ccc5c(c4)NC(=O)CO5)C3)cccc2n1 | log10 Ki | 1.70 |
| Cc1ccccc1Oc1ncccc1C1CCNCC1 | log10 Ki | 1.78 |
| O=C(NC/C=C/C[N+]1([O-])CCN(c2cccc(Cl)c2Cl)CC1)c1ccc(-c2ccccn2)cc1 | log10 Ki | 2.82 |
| Cn1c(=O)c2c(nc3n2CCCN3CCCN2CCN(c3ncccn3)CC2)n(C)c1=O | log10 Ki | 1.56 |
| CC(C)c1ccccc1OCCN1CCC(NS(=O)(=O)c2ccc(Cl)s2)CC1 | log10 Ki | 2.66 |
| CCNC(=O)c1ccc(-c2ccc3c(c2)CCN(CCN2CCC[C@H]2C)C3=O)cc1 | log10 Ki | 4.00 |
| O=C1c2ccccc2S(=O)(=O)N1CCCCCN1CCN(c2ncccn2)CC1 | log10 Ki | 0.78 |
| Cc1ccc2c(N3CCN(CCc4ccc5c(c4)NC(=O)CO5)CC3)cc(Cl)cc2n1 | log10 Ki | -0.50 |
| CC(=O)c1c(C)cc2oc(=O)cc(C)c2c1OCCCN1CCN(c2ccccc2F)CC1 | log10 Ki | -0.52 |
| Cn1c(=O)cnn(CCCCN2CCN(c3cccc(O)c3)CC2)c1=O | log10 Ki | 0.45 |
| COCCOCCOc1ccc(NC(=O)NCCCN2CCN(c3ccccc3OC)CC2)c(-c2ccccc2)c1 | log10 Ki | 2.34 |
| Cc1ccc(Sc2ccccc2N2CCNCC2)cc1C.Cl | log10 Ki | 1.72 |
| CC(=O)N1CCC(c2cccc(CC3CCN(CCOc4cccc5nc(C)ccc45)CC3)c2)CC1 | log10 Ki | 1.10 |
| Cc1cc2c(OC[C@@H](O)CN3CC[C@@H](c4cc5ccc(F)cc5s4)C[C@@H]3C)cccc2[nH]1 | log10 Ki | 1.09 |
| CCOc1ccccc1C(=O)NC1CCN(CCOc2cccc(F)c2)CC1 | log10 Ki | 2.66 |
| O=C1COc2ccc(CC3CCN(CCOc4cccc5ncccc45)CC3)cc2N1 | log10 Ki | 0.10 |
